Give measured EC50 for each item. Keep answers brief.
# System: TGF-β1
# experiment: EC50 of TGF-β1 siRNA candidates before and after modification, knockdown in cells
# Format: cell-based, human
# conditionSummary: RKO cells, homo, 24h, 24well (second TGF-β1 table); read-out: EC50 (24h, nM, 24well) RKO
Oligonucleotides are written 5' to 3', each unit as a sugar letter and its base; * is a phosphorothioate linkage, no mark a phosphodiester; rarer units and linkages stand in square brackets, end groups in braces. Plain capitals give the bases only. {P} = phosphorylation (indicated by P); d = 2'-deoxy (DNA); m = 2'-O-methyl; r = 2'-OH (RNA); f = 2'-fluoro
Reply with a number, then the unit it belongs to.

Answer with the recorded EC50 for the substance listed here: TF1-21-hm3#: siRNA targeting TGF-β1 mRNA; sense SEQ ID 23, antisense SEQ ID 33 (sense AACUAUUGCUUCAGCUCCATT; antisense UGGAGCUGAAGCAAUAGUUTT; sugars from the 5' end r19 d2, backbone not given here)
0.1 nM

Tell me measured EC50 for TF1-21-hm6#: siRNA targeting TGF-β1 mRNA; sense SEQ ID 26, antisense SEQ ID 36 (sense CGGCAGCUGUACAUUGACUTT; antisense AGUCAAUGUACAGCUGCCGTT; sugars from the 5' end r19 d2, backbone not given here) please.
0.048 nM

Answer with reported EC50 of TF1-21-hm3#mod: Modified (2′F, 2′OME, phosphorylation) siRNA targeting TGF-β1; sense SEQ ID 147, antisense SEQ ID 151 (sense mAmAmCmUmAmUfUfGfCmUmUmCmAmGmCmUmCmCmAdTdT; antisense {P}-mUfGmGmAmGmCmUmGmAmAmGmCmAfAmUmAmGmUmUdTdT)
0.08 nM

// fetch EC50 given entry TF1-21-hm7#: siRNA targeting TGF-β1 mRNA; sense SEQ ID 27, antisense SEQ ID 37 (sense GGCAGCUGUACAUUGACUUTT; antisense AAGUCAAUGUACAGCUGCCTT; sugars from the 5' end r19 d2, backbone not given here)
0.1 nM
